- tested-on: c-Src SH2
- procedure-summary: SH2 binding enrichment of the phosphorylated peptide, bacterial display (enrichment ratio); higher = better substrate or ligand; peptides without Tyr show the background;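 note: peptide library displayed on the E. coli surface as eCPX fusions, selected cells deep-sequenced, score is each peptide's frequency after selection divided by its frequency in the input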
Classification by SH2 binding enrichment | ranges: lo (below 0.5), med (0.5 to below 0.7), hi (0.7 or more)

ordered-residues | category
NIRKKYYRAIL [CHD7_Y1217_Q1214R] | lo
KHCEDYVFSYN [DSC1_Y846_C848F] | med
IVRSLYEDQED [VHL_Y185_L188Q] | hi
WVYNHYRWFIW [BRCA2_Y2624_I2627F] | med
RQQQDYWLMDV [ANPEP_Y600_I603M] | med
SLGSPYEQPPR [PDLIM4_Y137_G138E] | hi
DFRTTYVNANE [KCNH2_Y475_N470D] | hi
FKIFLYTLNDN [FN1_Y1975_YF] | lo
SVTCTYSPTLN [TP53_Y126_A129T] | lo
GRRGQYVMLSE [TTC7A_Y396] | hi
GHLYACDWISI [BEST1_Y227_Y227C] | hi
YPLELYERVRM [PRKCG_Y312] | hi
ILKPDYQPLAI [HYDIN_Y1072] | med
DGSALYTGSAL [COL6A3_Y524] | lo
TEAEPYFRSLR [NPHS1_Y1138_YF] | med
NNFGNYNNQSS [HNRNPA1_Y318_D314N] | lo
IQRSLYDRPAS [PDGFRA_Y762] | hi
EVTLTYATGTK [NFKB1_Y485] | lo
VMLENYSNLLS [ZFP69_Y109_V113L] | hi
EWLRGYLENGK [HLA-C_Y195_R194G] | lo
VIVRMYDYHVL [RPF2_Y109_G106V] | hi
HNVPIYEGFAL [ACTA1_Y168_YF] | lo
PEVCDYGLGGG [GSTO1_Y239_A236V] | med
TAALWYIYSHT [ENG_Y612] | med
